Biological target: CYP17 (steroid 17-alpha-hydroxylase/17,20 lyase) (Homo sapiens, UniProt P05093)
Sequence (P05093 whole entry): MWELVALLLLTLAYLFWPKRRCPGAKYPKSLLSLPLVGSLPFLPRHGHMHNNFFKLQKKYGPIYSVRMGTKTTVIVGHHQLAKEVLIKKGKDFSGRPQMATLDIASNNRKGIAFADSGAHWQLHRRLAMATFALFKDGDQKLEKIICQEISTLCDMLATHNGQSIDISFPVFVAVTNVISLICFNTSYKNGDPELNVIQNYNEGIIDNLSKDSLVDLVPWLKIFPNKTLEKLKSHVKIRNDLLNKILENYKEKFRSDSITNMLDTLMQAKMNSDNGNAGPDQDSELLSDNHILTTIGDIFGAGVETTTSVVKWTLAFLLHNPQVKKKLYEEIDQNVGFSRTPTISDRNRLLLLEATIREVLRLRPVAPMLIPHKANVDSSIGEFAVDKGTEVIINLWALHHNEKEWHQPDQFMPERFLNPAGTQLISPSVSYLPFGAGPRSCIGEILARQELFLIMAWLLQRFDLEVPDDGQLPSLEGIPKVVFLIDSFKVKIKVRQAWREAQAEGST
Assay: Inhibition of human CYP17 expressed in Escherichia coli at 2.5 uM
Details: recombinant human CYP17 expressed in Escherichia coli
readout type: inhibition at 2.5 µM
Enter the number, and then the unit.

Below are worked cases with known answers.
| smiles | inhibition at 2.5 µM |
| --- | --- |
| O=C(c1ccccc1)c1cc(Br)ccc1Cn1ccnc1 | 15% |
| O=C(c1ccc(-c2ccccc2)cc1)c1ccccc1Cn1ccnc1 | 24% |

Ask: Endpoint output: inhibition at 2.5 µM of `O=C(c1ccc(-c2ccccc2)cc1)c1cc([N+](=O)[O-])ccc1Cn1ccnc1` . Value?
Result: 17%

Numbers sourced from ChEMBL document CHEMBL1145461.
